Can you tell me EC50 for the items I'm about to list?
target: human amylin receptor (hAMYR3) (Homo sapiens, UniProt O60896+P30988); construct: host or cells: BHK cells (Hollex-1 line expressing hCTR(a) and CRE-Luc), further transfected with human RAMP3; test: Amylin receptor assay, method A (CRE-luciferase reporter, BHK cells); format: cell-based; conditions: method A, absence of HSA; read-out: hAMYR3 Potency, no HSA, EC50
Sequence (P30988 25-474): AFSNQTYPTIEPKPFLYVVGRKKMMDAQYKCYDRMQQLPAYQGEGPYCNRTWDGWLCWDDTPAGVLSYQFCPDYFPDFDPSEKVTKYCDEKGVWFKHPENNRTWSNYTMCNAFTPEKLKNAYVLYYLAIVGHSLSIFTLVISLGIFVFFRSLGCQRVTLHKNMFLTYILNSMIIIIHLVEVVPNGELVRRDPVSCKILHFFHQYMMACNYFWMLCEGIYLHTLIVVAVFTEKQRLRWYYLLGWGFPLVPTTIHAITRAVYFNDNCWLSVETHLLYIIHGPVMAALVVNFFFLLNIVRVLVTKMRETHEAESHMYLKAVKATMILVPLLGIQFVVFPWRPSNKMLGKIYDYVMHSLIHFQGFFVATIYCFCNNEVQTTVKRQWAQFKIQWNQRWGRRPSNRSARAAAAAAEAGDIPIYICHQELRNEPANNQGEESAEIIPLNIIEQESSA
Sequence (O60896 24-148): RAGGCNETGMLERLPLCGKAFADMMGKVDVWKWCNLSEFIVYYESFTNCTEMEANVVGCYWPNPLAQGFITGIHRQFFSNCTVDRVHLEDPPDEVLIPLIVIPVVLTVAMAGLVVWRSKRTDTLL
Numbered stars: 1 amine (or outer) side, 2 acyl side, 3 side chain; on linkers, the order of the positions; unused ones are H or OH. Square brackets hold non-standard residues; d marks the D form. Side chains are listed from the residue outwards. * marks the point of attachment. C18 diacid = O=C(O)CCCCCCCCCCCCCCCCC(=O)*; C16 diacid = O=C(O)CCCCCCCCCCCCCCC(=O)*; γGlu = O=C(O)[C@H](CCC(=O)[*:2])N[*:1]; AEEA = NCCOCCOCC(=O)O; Aib = CC(C)(N)C(=O)O
Answers are plain numbers, in pM.

Dear colleague, could you send me EC50 for each of the items below? Thanks.
1. Y[Aib]EGTFTSDYSILLEEQAAREFIEWLLAGGPSSGAPPPSGGGEASHLSTAQTQRLSAELHK([AEEA-AEEA-γGlu-C18 diacid])LATLPRTETGSGSP-NH2 [Compound 49]
2. Y[Aib]EGTFTSDYSILLEEQAAREFIEWLLAGGPSSGAGQAPGQAPGASHLSTAQTQRLSAK([AEEA-AEEA-γGlu-C18 diacid])LHRLATLPRTETGSGSP-NH2 [compound 55]
3. Y[Aib]EGTFTSDYSILLEEQAAREFIEWLLAGGPSK([AEEA-AEEA-γGlu-C18 diacid])GEASELSTAALGRLSAELHELATLPRTETGSGSP-NH2 [Compound 26]
4. Y[Aib]EGTFTSDYSILLEEQAAREFIEWLLAGGPSSGAGQAPGASHLSTAQTQRLSAELHK([AEEA-AEEA-γGlu-C18 diacid])LATLPRTETGSGSP-NH2 [Compound 97]

1. 1.85
2. 2.22
3. 11.8
4. 2.81

Dear colleague, could you send me EC50 for each of the items below? Thanks.
1. H[Aib]HGTFTSDYSILLEEQAAREFIEWLLAGGPSSGAGQAPGQAPGASHLSTAQTQRLSAELHRLATLPK([AEEA-AEEA-γGlu-C18 diacid])TETGSGSP-NH2 [Compound 92]
2. Y[Aib]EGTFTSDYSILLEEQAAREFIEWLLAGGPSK([AEEA-AEEA-γGlu-C16 diacid])GEASELSTAALGRLSAELHRLATLPRTETGSGSP-NH2 [Compound 18]

1: 2.64; 2: 3.93

Dear colleague, could you send me EC50 for each of the items below? Thanks.
1. H[Aib]HGTFTSDYSILLEEQAAREFIEWLLAGGPSSGEASHLSTAALGRLSAELHRLK([AEEA-AEEA-γGlu-C18 diacid])TLPRTETGSGSP-NH2 [Compound 89]
2. H[Aib]HGTFTSDYSILLEEQAAREFIEWLLAGGPSK([AEEA-AEEA-γGlu-C18 diacid])GEASQLSTAALGRLSAELHRLATLPRTETGSGSP-NH2 [Compound 73]

[3.12, 1.99]

# credit: patent US20260174875A1
